Each recorded value in this set is attributed to patent US20210324080A1.

Biological target: T1, CTLA-4 on human T lymphocytes (PBMC, CD3+ T cells) (human, UniProt P16410 36-223)
T1 sequence (looked up): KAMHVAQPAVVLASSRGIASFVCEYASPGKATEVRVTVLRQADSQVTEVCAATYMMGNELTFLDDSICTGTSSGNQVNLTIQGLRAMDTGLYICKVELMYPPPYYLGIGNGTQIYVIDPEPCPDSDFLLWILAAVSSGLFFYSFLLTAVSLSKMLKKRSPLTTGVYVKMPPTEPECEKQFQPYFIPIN
Test: cell-based or functional assay
ASSAY ENDPOINT: IL-2 secretion, pg/ml, at 0.37 ug/ml, N = 1

| BINDER | VALUE REPORTED |
| --- | --- |
| 31C12F3 fully human CTLA-4 antibody (human IgG1, kappa) (antibody, V domains shown, also called mAb010) VH: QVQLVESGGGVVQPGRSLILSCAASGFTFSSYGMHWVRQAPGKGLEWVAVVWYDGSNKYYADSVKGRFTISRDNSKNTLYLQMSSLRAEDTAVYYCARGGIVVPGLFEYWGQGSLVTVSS VL: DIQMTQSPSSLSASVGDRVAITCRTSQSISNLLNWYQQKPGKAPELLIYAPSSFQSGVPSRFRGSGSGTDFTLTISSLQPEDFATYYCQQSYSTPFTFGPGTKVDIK | 1760 pg/mL |
| 40C4C6 fully human CTLA-4 antibody (human IgG1, kappa) (antibody, V domains shown, also called mAb09; mAb009) VH: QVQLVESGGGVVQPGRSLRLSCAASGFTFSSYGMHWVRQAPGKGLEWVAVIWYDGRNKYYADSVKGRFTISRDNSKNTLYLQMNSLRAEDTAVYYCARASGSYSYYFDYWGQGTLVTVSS VL: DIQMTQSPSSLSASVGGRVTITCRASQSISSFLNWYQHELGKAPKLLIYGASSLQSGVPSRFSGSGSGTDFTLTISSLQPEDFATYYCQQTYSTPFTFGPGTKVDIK | 2370 pg/mL |
| 92C8B6 fully human CTLA-4 antibody (human IgG1, kappa) (antibody, V domains shown, also called mAb42; mAb042) VH: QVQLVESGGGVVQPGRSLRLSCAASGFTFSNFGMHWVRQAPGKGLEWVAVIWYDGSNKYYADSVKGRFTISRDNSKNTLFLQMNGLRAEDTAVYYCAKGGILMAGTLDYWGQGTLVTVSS VL: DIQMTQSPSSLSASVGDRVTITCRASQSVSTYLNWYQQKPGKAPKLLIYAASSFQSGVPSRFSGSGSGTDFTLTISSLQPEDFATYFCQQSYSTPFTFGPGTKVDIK | 2810 pg/mL |
| 97A8D1 fully human CTLA-4 antibody (human IgG1, kappa) (antibody, V domains shown, also called mAb49; mAb049) VH: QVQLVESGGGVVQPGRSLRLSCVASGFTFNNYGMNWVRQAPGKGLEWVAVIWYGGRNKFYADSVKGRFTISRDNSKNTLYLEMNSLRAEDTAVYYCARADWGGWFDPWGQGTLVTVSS VL: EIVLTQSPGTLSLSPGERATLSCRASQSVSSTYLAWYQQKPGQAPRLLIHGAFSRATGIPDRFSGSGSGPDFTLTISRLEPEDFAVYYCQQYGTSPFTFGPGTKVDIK | 2110 pg/mL |
